Entry source: ChEMBL document CHEMBL3870302

Test system: Hepatitis C virus
Assay Protocol: Antiviral activity against Hepatitis C virus genotype 1b infected in human HuH5.2 cells after 72 hrs by luciferase reporter gene assay
Assay type: functional, cell-based, Hepacivirus hominis
Condition Set: Hepatitis C virus, genotype 1b, Huh-5-2, 72 h
# key: entry, value: pEC50
// field semantics: pEC50 = negative decimal log of concentration (mol/L)

Sample records with pEC50:
| Given Smiles | Reported Metric | Numeric Result |
| --- | --- | --- |
| C/C(=N\Nc1ncnc2sc3c(c12)CCCC3)c1ccccn1 | pEC50 | 5.96 |
| C/C(=N\Nc1ncnc2sc3ccccc3c12)c1nc2ccccc2[nH]1 | pEC50 | 5.96 |
| O=C(NNc1ncnc2sc3ccccc3c12)c1ccccc1O | pEC50 | 6.08 |

Enquiry: Answer with the recorded pEC50 of "O=C(NNc1ncnc2sc3c(c12)CCCC3)c1cnccn1" only.
Return: 5.89

---

Assay Protocol: Cytotoxicity against human HuH5.2 cells assessed as reduction in metabolic activity after 72 hrs by MTS assay
Assay type: toxicity, cell-based, Huh-5-2
Condition Set: HuH5.2 cells
Reported Metric: CC50 at 72 h

Sample records with CC50 at 72 h:
| Given Smiles | CC50 at 72 h |
| --- | --- |
| C/C(=N\Nc1ncnc2sc3c(c12)CCC3)c1cc(O)ccc1O | > 367 µM |
| C/C(=N\Nc1ncnc2sc3c(c12)CCCC3)c1cc(Cl)ccc1Cl | > 256 µM |
| Cc1c(Cl)sc2ncnc(NNC(=O)c3ccccc3O)c12 | > 8.96 µM |
| C/C(=N/Nc1ncnc2sc(Cl)c(C)c12)c1ccccc1O | > 9.01 µM |
| COc1ccc(/C(C)=N/NC(=O)c2cc(O)cc(O)c2)c(OC)c1 | > 151 µM |

Enquiry: Answer with the recorded CC50 at 72 h of "COc1ccc(-c2c(C#N)c(SCC(N)=O)nc3c2CCCC3)cc1" only.
Return: > 142 µM

Enquiry: Answer with the recorded CC50 at 72 h of "COc1cc2nc(CN3CCC(C(N)=O)CC3)[nH]c(=O)c2cc1OC" only.
Return: > 144 µM

Enquiry: Answer with the recorded CC50 at 72 h of "Cc1nc(NNC(=O)c2ccccn2)c2c3c(sc2n1)CCCC3" only.
Return: > 2.95 µM

Enquiry: Answer with the recorded CC50 at 72 h of "O=C(Nc1ccc(S(=O)(=O)O)c2ccccc12)c1ccc(C(=O)Nc2ccc(S(=O)(=O)O)c3ccccc23)cc1" only.
Return: > 86 µM

Enquiry: Answer with the recorded CC50 at 72 h of "C/C(=N\Nc1ncnc2sc3c(c12)CCCC3)c1ccc(O)cc1" only.
Return: > 295 µM

Enquiry: Answer with the recorded CC50 at 72 h of "C/C(=N\Nc1ncnc2sc3c(c12)CCCC3)c1cccnc1" only.
Return: > 309 µM

---

Assay Protocol: Cytotoxicity against human HuH5.2 cells assessed as reduction in metabolic activity after 72 hrs by MTS assay
Type: toxicity, cell-based, Huh-5-2
Condition Set: HuH5.2 cells
# key: entry, value: CC50 at 72 h
Numbers only; they are read as µM.

| Given Smiles | Scale Unit | Numeric Result |
| --- | --- | --- |
| COc1ccc(OC)c(/C(C)=N/Nc2ncnc3sc4c(c23)CCCC4)c1 | µM | 98.5 |

Next up:
Enquiry: Answer with the recorded CC50 at 72 h of "C/C(=N/Nc1ncnc2sc3c(c12)CCC3)c1nc2ccccc2[nH]1" only.
Return: 6.83
